Test: Inhibition of NS5A in HCV genotype 1b infected in […] cells assessed as reduction in viral replication incubated for 48 hrs by luciferase reporter gene assay
OBSERVED PROPERTY: EC50 (pM)

[[record]]
compound_structure_string = "COC(=O)N[C@H](C(=O)N1CCC[C@H]1c1nc(-c2ccc(-c3ccc(-c4c[nH]c([C@@H]5CCCN5C(=O)[C@@H](NC(=O)OC)C(C)C)n4)cc3)cc2)c[nH]1)C(C)C"
observed_property = "EC50"
display_unit = "pM"
reported = 8

[[record]]
compound_structure_string = "COC(=O)N[C@H](C(=O)N1[C@H](c2ncc(-c3ccc4c(c3)-c3ccc(-c5cnc([C@@H]6C[C@@H]7CCC[C@@H]7N6C(=O)[C@@H](NC(=O)OC)[C@@H](C)OC)[nH]5)cc3-4)[nH]2)C[C@@H]2CCC[C@@H]21)[C@@H](C)OC"
observed_property = "EC50"
display_unit = "pM"
reported = 8


* * *

Each record here notes measured EC50.
Assay: Inhibition of NS5A in HCV genotype 3a con infected in […] cells assessed as reduction in viral replication incubated for 48 hrs by luciferase reporter gene assay
OBSERVED PROPERTY: EC50 (pM)

[[record]]
compound = "COC(=O)N[C@H](C(=O)N1CCC[C@H]1c1nc(-c2ccc(-c3ccc(-c4c[nH]c([C@@H]5CCCN5C(=O)[C@@H](NC(=O)OC)C(C)C)n4)cc3)cc2)c[nH]1)C(C)C [BMS-790052]"
observed_property = "EC50"
result_operator = "="
reported = 412

[[record]]
compound = "COC(=O)N[C@H](C(=O)N1CCC[C@H]1c1ncc(-c2ccc3c(c2)-c2ccc(-c4cnc([C@@H]5CCCN5C(=O)[C@@H](NC(=O)OC)C(C)C)[nH]4)cc2-3)[nH]1)C(C)C"
observed_property = "EC50"
result_operator = "<"
reported = 25

[[record]]
compound = "COC(=O)N[C@H](C(=O)N1[C@H](c2ncc(-c3ccc4c(c3)-c3ccc(-c5cnc([C@@H]6C[C@@H]7CCC[C@@H]7N6C(=O)[C@@H](NC(=O)OC)[C@@H](C)O)[nH]5)cc3-4)[nH]2)C[C@@H]2CCC[C@@H]21)[C@@H](C)O"
observed_property = "EC50"
result_operator = "="
reported = 18

[[record]]
compound = "COC(=O)N[C@H](C(=O)N1[C@H](c2ncc(-c3ccc4c(c3)-c3ccc(-c5cnc([C@@H]6C[C@@H]7CCC[C@@H]7N6C(=O)[C@@H](NC(=O)OC)[C@@H](C)OC)[nH]5)cc3-4)[nH]2)C[C@@H]2CCC[C@@H]21)[C@@H](C)OC"
observed_property = "EC50"
result_operator = "="
reported = 20


* * *

Experiment: Inhibition of NS5A in patient-derived HCV genotype 2a infected in […] cells assessed as reduction in viral replication incubated for 48 hrs by luciferase reporter gene assay
Each record here notes measured EC50.
OBSERVED PROPERTY: EC50 (nM)

[[record]]
compound_structure_string = "COC(=O)N[C@H](C(=O)N1[C@H](c2ncc(-c3ccc4c(c3)-c3ccc(-c5cnc([C@@H]6C[C@@H]7CCC[C@@H]7N6C(=O)[C@@H](NC(=O)OC)[C@@H](C)OC)[nH]5)cc3-4)[nH]2)C[C@@H]2CCC[C@@H]21)[C@@H](C)OC"
observed_property = "EC50"
display_unit = "nM"
reported = 0.664

[[record]]
compound_structure_string = "COC(=O)N[C@H](C(=O)N1[C@H](c2ncc(-c3ccc4c(c3)-c3ccc(-c5cnc([C@@H]6C[C@@H]7CCC[C@@H]7N6C(=O)[C@@H](NC(=O)OC)[C@@H](C)O)[nH]5)cc3-4)[nH]2)C[C@@H]2CCC[C@@H]21)[C@@H](C)O"
observed_property = "EC50"
display_unit = "nM"
reported = 1.06


* * *

Assay: Inhibition of NS5A in patient-derived HCV genotype 2a infected in […] cells assessed as reduction in viral replication incubated for 48 hrs by luciferase reporter gene assay
pEC50: −log10 of the molar value.
OBSERVED PROPERTY: pEC50

[[record]]
compound = "COC(=O)N[C@H](C(=O)N1CCC[C@H]1c1ncc(-c2ccc3c(c2)-c2ccc(-c4cnc([C@@H]5CCCN5C(=O)[C@@H](NC(=O)OC)C(C)C)[nH]4)cc2-3)[nH]1)C(C)C"
reported = 7.31

[[record]]
compound = "COC(=O)N[C@H](C(=O)N1CCC[C@H]1c1nc(-c2ccc(-c3ccc(-c4c[nH]c([C@@H]5CCCN5C(=O)[C@@H](NC(=O)OC)C(C)C)n4)cc3)cc2)c[nH]1)C(C)C [BMS-790052]"
reported = 7.31

[[record]]
compound = "COC(=O)N[C@H](C(=O)N1[C@H](c2ncc(-c3ccc4c(c3)-c3ccc(-c5cnc([C@@H]6C[C@@H]7CCC[C@@H]7N6C(=O)[C@@H](NC(=O)OC)[C@@H](C)OC)[nH]5)cc3-4)[nH]2)C[C@@H]2CCC[C@@H]21)[C@@H](C)O"
reported = 8.99


* * *

Test: Inhibition of NS5A in HCV genotype 2a con infected in […] cells assessed as reduction in viral replication incubated for 48 hrs by luciferase reporter gene assay
OBSERVED PROPERTY: EC50

[[record]]
compound_structure_string = "COC(=O)N[C@H](C(=O)N1[C@H](c2ncc(-c3ccc4c(c3)-c3ccc(-c5cnc([C@@H]6C[C@@H]7CCC[C@@H]7N6C(=O)[C@@H](NC(=O)OC)[C@H](C)O)[nH]5)cc3-4)[nH]2)C[C@@H]2CCC[C@@H]21)[C@H](C)O"
observed_property = "EC50"
reported = "35.1 nM"

[[record]]
compound_structure_string = "COC(=O)N[C@H](C(=O)N1[C@H](c2ncc(-c3ccc4c(c3)-c3ccc(-c5cnc([C@@H]6C[C@@H]7CCC[C@@H]7N6C(=O)[C@@H](NC(=O)OC)C(C)C)[nH]5)cc3-4)[nH]2)C[C@@H]2CCC[C@@H]21)C(C)C"
observed_property = "EC50"
reported = "4.52 nM"

[[record]]
compound_structure_string = "CN(C)[C@@H](C(=O)N1CCC[C@H]1c1ncc(-c2ccc3c(c2)-c2ccc(-c4cnc([C@@H]5CCCN5C(=O)[C@@H](c5ccccc5)N(C)C)[nH]4)cc2-3)[nH]1)c1ccccc1"
observed_property = "EC50"
reported = "0.327 nM"

[[record]]
compound_structure_string = "COC(=O)N[C@H](C(=O)N1[C@H](c2ncc(-c3ccc4c(c3)-c3ccc(-c5cnc([C@@H]6C[C@@H]7CCC[C@@H]7N6C(=O)[C@@H](NC(=O)OC)[C@@H](C)OC)[nH]5)cc3-4)[nH]2)C[C@@H]2CCC[C@@H]21)[C@@H](C)OC"
observed_property = "EC50"
reported = "0.115 nM"

[[record]]
compound_structure_string = "COC(=O)N[C@H](C(=O)N1CCC[C@H]1c1ncc(-c2ccc3c(c2)-c2ccc(-c4cnc([C@@H]5CCCN5C(=O)[C@@H](NC(=O)OC)C(C)C)[nH]4)cc2-3)[nH]1)C(C)C"
observed_property = "EC50"
reported = "32 nM"

[[record]]
compound_structure_string = "COC(=O)N[C@H](C(=O)N1[C@H](c2ncc(-c3ccc4c(c3)-c3ccc(-c5cnc([C@@H]6C[C@@H]7CCCC[C@@H]7N6C(=O)[C@@H](NC(=O)OC)C(C)C)[nH]5)cc3-4)[nH]2)C[C@@H]2CCCC[C@@H]21)C(C)C"
observed_property = "EC50"
reported = "3.33 nM"

[[record]]
compound_structure_string = "COC(=O)N[C@@H](CO)C(=O)N1[C@H](c2ncc(-c3ccc4c(c3)-c3ccc(-c5cnc([C@@H]6C[C@@H]7CCC[C@@H]7N6C(=O)[C@@H](NC(=O)OC)C(C)C)[nH]5)cc3-4)[nH]2)C[C@@H]2CCC[C@@H]21"
observed_property = "EC50"
reported = "4.37 nM"

[[record]]
compound_structure_string = "COC(=O)N[C@H](C(=O)N1CCC[C@H]1c1ncc(-c2ccc3c(c2)-c2ccc(-c4cnc([C@@H]5CCCN5C(=O)[C@@H](c5ccccc5)N(C)C)[nH]4)cc2-3)[nH]1)C(C)C"
observed_property = "EC50"
reported = "1.47 nM"

[[record]]
compound_structure_string = "COC(=O)N[C@H](C(=O)N1[C@H](c2ncc(-c3ccc4c(c3)-c3ccc(-c5cnc([C@@H]6C[C@@H]7CCC[C@@H]7N6C(=O)[C@@H](NC(=O)OC)[C@@H](C)OC)[nH]5)cc3-4)[nH]2)C[C@@H]2CCC[C@@H]21)[C@@H](C)O"
observed_property = "EC50"
reported = "0.188 nM"

[[record]]
compound_structure_string = "COC(=O)N[C@@H](CO)C(=O)N1[C@H](c2ncc(-c3ccc4c(c3)-c3ccc(-c5cnc([C@@H]6C[C@@H]7CCC[C@@H]7N6C(=O)[C@H](CO)NC(=O)OC)[nH]5)cc3-4)[nH]2)C[C@@H]2CCC[C@@H]21"
observed_property = "EC50"
reported = "8.91 nM"

[[record]]
compound_structure_string = "COC(=O)N[C@H](C(=O)N1CCC[C@H]1c1nc(-c2ccc(-c3ccc(-c4c[nH]c([C@@H]5CCCN5C(=O)[C@@H](NC(=O)OC)C(C)C)n4)cc3)cc2)c[nH]1)C(C)C"
observed_property = "EC50"
reported = "52.8 nM"

[[record]]
compound_structure_string = "COC(=O)N[C@H](C(=O)N1[C@H](c2ncc(-c3ccc4c(c3)-c3ccc(-c5cnc([C@@H]6C[C@@H]7CCC[C@@H]7N6C(=O)[C@@H](NC(=O)OC)[C@@H](C)O)[nH]5)cc3-4)[nH]2)C[C@@H]2CCC[C@@H]21)[C@@H](C)O"
observed_property = "EC50"
reported = "0.141 nM"

[[record]]
compound_structure_string = "COC(=O)N[C@H](C(=O)N1CCC[C@H]1c1ncc(-c2ccc3c(c2)-c2ccc(-c4cnc([C@@H]5C[C@@H]6CCCC[C@@H]6N5C(=O)[C@@H](NC(=O)OC)C(C)C)[nH]4)cc2-3)[nH]1)C(C)C"
observed_property = "EC50"
reported = "12.2 nM"

[[record]]
compound_structure_string = "COC(=O)N[C@H](C(=O)N1[C@H](c2ncc(-c3ccc4c(c3)-c3ccc(-c5cnc([C@@H]6C[C@@H]7CCC[C@@H]7N6C(=O)[C@@H](NC(=O)OC)[C@@H](C)O)[nH]5)cc3-4)[nH]2)C[C@@H]2CCC[C@@H]21)C(C)C"
observed_property = "EC50"
reported = "0.97 nM"

